# inhibition annotations
MEASUREMENT_TARGET: Golgi-associated PDZ and coiled-coil motif-containing protein (Homo sapiens)
ASSAY_DETAILS: untagged CAL PDZ binding inhibitors, primary screen, biochemical, fluorescence polarization, HTS (AID 602252);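 further: 0% = DMSO neutral control and 100% = excess unlabeled competitor peptide PRC23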
REPORTED_CONDITIONS: purified CAL PDZ, TMR-peptide fluorescence polarization, 1 h; at 24.9 µM; active compounds read high
Hit rate of the full screen: of about 300,000 compounds, about 2,700 (0.9%) were called active. Shown is part of a subset that was picked to be rich in actives.
// return numeric value only (unit: %, not printed)

Worked examples follow.
Cc1ccc(C(=O)C[n+]2cc(-c3ccccc3)n3c2CCCCC3)cc1	-2
O=C(OCC(=O)N1CCOCC1)c1ccc(N2CCOCC2)c([N+](=O)[O-])c1	53.8
COc1ccc(CN2C(CC(=O)Nc3cccnc3)c3ccc(C(F)(F)F)cc3S2(=O)=O)cc1 (stereo not given)	-6.01
Cn1c(-c2ccccc2)c[n+]2c1CCCCC2	-4.71

Moving on to another compound below.
Indicate its recorded inhibition; the compound in question is O=C(c1ccc(N2CCOCC2)c([N+](=O)[O-])c1)N1CCN(c2ccccc2F)CC1
-2.67

Reference for the values: PubChem BioAssay AID602252
